Tested on: PXR homodimer (NR concentration 270 nM)
Assay: PBM binding z-score (relative to random genomic background probes); higher = stronger binding; sequences stand for … in GC…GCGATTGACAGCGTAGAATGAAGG
PARAMETER_MEASURED: PBM binding z-score

>>> measurement("GATAAAGGGTCAAGGCCAGAGTACGCGTATTGAT")
0.42
>>> measurement("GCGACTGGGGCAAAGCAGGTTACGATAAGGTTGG")
-0.433
>>> measurement("TCGAGTAGGTTAGTCGGGGCATACAGCCAACATA")
0.0501
>>> measurement("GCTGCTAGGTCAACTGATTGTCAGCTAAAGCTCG")
-0.593
>>> measurement("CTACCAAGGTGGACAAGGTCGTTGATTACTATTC")
0.687
>>> measurement("CCACGGAGGACAGAAGGTCAGAGCTGTCCGCTTT")
-0.17
>>> measurement("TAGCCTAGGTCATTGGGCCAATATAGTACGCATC")
-0.353
>>> measurement("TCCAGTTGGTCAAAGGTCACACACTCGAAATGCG")
2.67
>>> measurement("CCATACAGGTGAAAGGTAACTCAGTCTGGTACGC")
0.206
>>> measurement("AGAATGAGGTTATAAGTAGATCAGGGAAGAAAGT")
0.923
>>> measurement("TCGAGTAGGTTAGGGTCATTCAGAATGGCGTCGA")
2.03
>>> measurement("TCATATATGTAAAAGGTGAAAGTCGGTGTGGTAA")
-0.143

---

Test system: LXRa homodimer (NR concentration 270 nM)
Test: PBM binding z-score (relative to random genomic background probes); higher = stronger binding; sequences stand for … in GC…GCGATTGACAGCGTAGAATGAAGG
PARAMETER_MEASURED: PBM binding z-score

>>> measurement("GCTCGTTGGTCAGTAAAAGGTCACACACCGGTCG")
5.11
>>> measurement("CTGACTGGGGCATAAGGTTACCATAAGCCAGCCC")
0.0158
>>> measurement("CCTAGCAGGCCAATCTGTGTCACTCAAGGCTTGA")
-0.502
>>> measurement("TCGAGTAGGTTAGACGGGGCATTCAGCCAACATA")
-0.343
>>> measurement("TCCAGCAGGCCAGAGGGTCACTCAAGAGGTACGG")
-0.45
>>> measurement("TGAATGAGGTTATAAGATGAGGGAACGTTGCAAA")
-0.0389

---

Readings of PBM binding z-score for the listed sequences
Tested on: PPARg:RXRa 90nM:30nM, anti-RXR (NR concentration 90 nM, RXRa partner concentration 30 nM)
Experiment: PBM binding z-score (relative to random genomic background probes); higher = stronger binding; sequences stand for … in GC…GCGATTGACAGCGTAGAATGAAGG
PARAMETER_MEASURED: PBM binding z-score

>>> measurement("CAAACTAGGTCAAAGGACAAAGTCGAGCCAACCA")
9.77
>>> measurement("CCAACTAGGTCACCGGAAGGTCAAAGTCCGCATG")
6.94
>>> measurement("CGAACGAGGACATGAGTTGATAGCAAATGCCGAT")
0.242
>>> measurement("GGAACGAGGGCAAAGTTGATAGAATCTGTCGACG")
7.35
>>> measurement("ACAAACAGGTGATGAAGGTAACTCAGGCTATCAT")
0.0404
>>> measurement("CCTAGCAGGCCAATCTGGGTCACTCAAGGCTTGA")
1.52
>>> measurement("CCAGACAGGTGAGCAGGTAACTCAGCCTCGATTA")
-0.464
>>> measurement("AGAACGAGGGCACGCTGAGTTGAGAGCAGAGTAG")
0.958
>>> measurement("CCTATTAGTTGACCATAAGGGCACCCGAAGCTCG")
0.172
>>> measurement("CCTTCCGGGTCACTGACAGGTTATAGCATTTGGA")
3.7
>>> measurement("AGAATGAGGTTAAGATCAGGGACACAGAATACAT")
1.85
>>> measurement("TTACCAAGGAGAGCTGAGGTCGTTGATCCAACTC")
0.316
